Test: qHTS for Inhibitos of Bacillus subtilis Sfp phosphopantetheinyl transferase (PPTase): Chemistry Optimization Followup in B. Subtilis HM489
Settings: B. subtilis HM489 (acpS-) growth, BacTiter-Glo, 5 h; series mostly up to 114 µM
Text: Phosphopantetheinyl transfer is a process essential to cellular viability and maintenance. Cellular permeable and stable compounds acting as PPTase inhibitors are anticipated to be antimicrobial agents in organisms with complimenting genotypes. […] This experiment evaluated a series of test compounds for antimicrobial activity with B. subtilis HM489 (genotype: acpS- and sfp+), a strain that contains a targeted lesion in the acpS locus and thus requires a functional Sfp gene product for viability. […]
The other results are listed elsewhere or left out. Results filed as inconclusive are left out. Active and inactive are the calls of the source. The call rests on the fitted dose curve; in most records, active means well fitted inhibition curve with a large enough effect; inconclusive means small, poorly fitted or top-dose-only effect; inactive means no such curve, though single readings can be large or run the other way.
In this section we review reported Potency values for a set of molecules.

Look over these answered cases.
Cc1ccc(N2CCN(C(=S)Nc3cc(C)ccn3)CC2)cc1    33.2 µM (active)
Cc1cc(C)nc(NC(=S)N2CCN(c3cccc(C(F)(F)F)c3)CC2)c1    33.2 µM (active)
Cc1cc(C)nc(NC(=S)N2CCN(c3ccc(Cl)cc3C(F)(F)F)CC2)c1    10.5 µM (active)
COc1cccc(NC(=S)N2CCN(c3ccccc3C(F)(F)F)CC2)n1    23.5 µM (active)
Cc1cc(C)nc(NC(=S)N2CCN(c3ccc(Cl)cc3F)CC2)c1    23.5 µM (active)

In the following, a different molecule is considered.
Task item: Fill in the blank: the reported Potency of `FC(F)(F)c1cccc(N2CCN(C(=S)Nc3ccncc3)CC2)c1` is ____.
Reply: 59.1 µM (active)
